Reference source for all entries: patent US20240158438A1

molecular target: CYP 2C19 (Homo sapiens (Human), UniProt P33261); assay type: in vitro ADME; details: microsomes, 10 min
Sequence (P33261 whole entry): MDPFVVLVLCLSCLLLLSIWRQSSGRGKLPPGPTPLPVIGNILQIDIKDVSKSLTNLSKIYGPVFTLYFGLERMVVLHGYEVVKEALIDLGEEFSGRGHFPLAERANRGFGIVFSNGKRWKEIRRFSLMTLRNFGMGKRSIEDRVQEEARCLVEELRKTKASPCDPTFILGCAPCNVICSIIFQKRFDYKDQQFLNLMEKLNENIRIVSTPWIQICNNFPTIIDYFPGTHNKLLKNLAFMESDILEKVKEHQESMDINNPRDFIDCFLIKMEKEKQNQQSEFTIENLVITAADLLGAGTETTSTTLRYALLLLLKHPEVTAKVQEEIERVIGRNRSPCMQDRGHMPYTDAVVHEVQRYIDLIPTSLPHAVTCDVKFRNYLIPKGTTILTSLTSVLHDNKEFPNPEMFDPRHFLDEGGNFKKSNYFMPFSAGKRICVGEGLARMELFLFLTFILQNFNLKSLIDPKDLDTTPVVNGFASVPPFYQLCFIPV
pIC50: −log10 of the molar value. Starred links: 1 amine or outer side, 2 acyl side, 3 side chain; linkers in the order of their positions; H or OH if unused. Non-standard residues stand in square brackets, D forms with d. Residues, ends and D or L forms follow the SMILES beside them. *: point of attachment. Azetidine3carboxylic = O=C(C1CN([*:1])C1)[*:2]; dBta = N[C@H](Cc1csc2ccccc12)C(=O)O; Api = NC1(C(=O)O)CCNCC1; X3 = NCC1(C(=O)*)CCC1
Reported pIC50 is given for each of the following compounds.

>>> experimental_value("NCC1(C(=O)N[C@H](Cc2csc3ccccc23)C(=O)N[C@H](Cc2c[nH]c3ccccc23)C(=O)N[C@@H](Cc2ccccc2)C(=O)NC2(C(N)=O)CCNCC2)CCC1 [Compound 22] (X3-[dBta][dW]F[Api]-NH2)")
"< 4.30"

Consider the additional compound presented here.
q: Form field: reported pIC50 of NC(=O)C1(NC(=O)[C@H](Cc2ccccc2)NC(=O)[C@@H](Cc2c[nH]c3ccccc23)NC(=O)[C@@H](Cc2csc3ccccc23)NC(=O)C2CNC2)CCNCC1 [Compound 23] (Azetidine3carboxylic-[dBta][dW]F[Api]-NH2)
a: < 4.30

---

Listing of entries alongside the reported IC50.
target: UniProtKB P10635; assay type: in vitro ADME; details: microsomes, 10 min
Sequence (P10635 whole entry): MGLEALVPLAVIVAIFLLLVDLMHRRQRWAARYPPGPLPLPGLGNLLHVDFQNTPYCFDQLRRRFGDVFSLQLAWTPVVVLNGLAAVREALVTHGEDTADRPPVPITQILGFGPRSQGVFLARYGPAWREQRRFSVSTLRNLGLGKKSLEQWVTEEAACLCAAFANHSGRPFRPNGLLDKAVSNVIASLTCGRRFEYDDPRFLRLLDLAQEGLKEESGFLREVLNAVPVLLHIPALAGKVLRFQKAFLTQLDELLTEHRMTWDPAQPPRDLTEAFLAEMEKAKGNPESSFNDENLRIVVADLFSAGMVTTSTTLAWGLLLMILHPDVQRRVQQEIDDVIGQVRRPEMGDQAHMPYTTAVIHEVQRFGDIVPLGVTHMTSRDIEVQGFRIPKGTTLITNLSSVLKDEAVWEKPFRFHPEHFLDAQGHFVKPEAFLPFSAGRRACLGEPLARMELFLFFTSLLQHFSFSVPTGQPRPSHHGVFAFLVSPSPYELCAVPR
Non-standard residues stand in square brackets, D forms with d. Residues, ends and D or L forms follow the SMILES beside them. *: point of attachment. dBta = N[C@H](Cc1csc2ccccc12)C(=O)O; X2 = O=C(C12CNC[C@@H]1C2)*; Api = NC1(C(=O)O)CCNCC1; Abu = CC[C@H](N)C(=O)O; X3 = NCC1(C(=O)*)CCC1

Look over these answered cases.
>>> experimental_value("NCC1(C(=O)N[C@H](Cc2csc3ccccc23)C(=O)N[C@H](Cc2c[nH]c3ccccc23)C(=O)N[C@@H](Cc2ccccc2)C(=O)NC2(C(N)=O)CCNCC2)CCC1 [Compound 22] (X3-[dBta][dW]F[Api]-NH2)")
"> 50 µM"
>>> experimental_value("NC(=O)C1(NC(=O)[C@H](Cc2ccccc2)NC(=O)[C@@H](Cc2c[nH]c3ccccc23)NC(=O)[C@@H](Cc2csc3ccccc23)NC(=O)C23CNC[C@@H]2C3)CCNCC1 (stereo partly shown) [Compound 30] (X2-[dBta][dW]F[Api]-NH2)")
"> 50 µM"
>>> experimental_value("NC(=O)C1(NC(=O)[C@H](Cc2ccccc2)NC(=O)[C@@H](Cc2c[nH]c3ccccc23)NC(=O)[C@@H](Cc2csc3ccccc23)NC(=O)[C@@H]2CCCN2)CCNCC1 [Compound 15] (H-P[dBta][dW]F[Api]-NH2)")
"31.1 µM"

q: IC50 for CC[C@H](N)C(=O)N[C@H](Cc1csc2ccccc12)C(=O)N[C@H](Cc1c[nH]c2ccccc12)C(=O)N[C@@H](Cc1ccccc1)C(=O)N[C@H](CCCCN)C(N)=O [Compound 33] (H-[Abu][dBta][dW]F[dK]-NH2) ?
a: > 50 µM

---

target: GHSR-1a (Homo sapiens (Human)); test: Agonistic activity for GHSR-1a, FLIPR calcium assay; assay type: cell-based; conditions: agonist activity assay, Flp In-CHO-GHSR Stable Pool cells, FLIPR calcium 6 kit; read-out: The activity (IC50) of polypeptide compounds for GHSR-1a
Sequence (Q92847 whole entry): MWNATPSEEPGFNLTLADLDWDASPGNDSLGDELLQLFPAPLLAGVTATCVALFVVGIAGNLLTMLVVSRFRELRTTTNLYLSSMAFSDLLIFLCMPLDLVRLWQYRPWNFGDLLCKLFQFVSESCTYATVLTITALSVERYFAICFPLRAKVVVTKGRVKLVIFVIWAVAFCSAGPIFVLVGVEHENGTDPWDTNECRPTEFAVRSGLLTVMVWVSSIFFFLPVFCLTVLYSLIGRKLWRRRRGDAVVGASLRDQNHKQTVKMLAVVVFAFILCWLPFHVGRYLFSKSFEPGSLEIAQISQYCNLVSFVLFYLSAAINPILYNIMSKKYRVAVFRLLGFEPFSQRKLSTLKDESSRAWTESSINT
Non-standard residues stand in square brackets, D forms with d. Residues, ends and D or L forms follow the SMILES beside them. *: point of attachment. X5 = NC12CC3CC(C1)CC(CC(=O)*)(C3)C2; dBta = N[C@H](Cc1csc2ccccc12)C(=O)O; X7 = O=C([C@@]12CNC[C@@H]1C2)*; Ac4c(3-oxa) = NC1(C(=O)O)COC1; X2 = O=C(C12CNC[C@@H]1C2)*; Api = NC1(C(=O)O)CCNCC1; X4 = O=C([C@H]1CNCCO1)*; dAze = O=C(O)[C@H]1CCN1; Abu = CC[C@H](N)C(=O)O
Threshold-based label: IC50 under 20 nM gives criterion met, IC50 not under 20 nM gives criterion not met.

>>> answer_label("NC(=O)[C@H](Cc1ccccc1)NC(=O)[C@@H](Cc1c[nH]c2ccccc12)NC(=O)[C@@H](Cc1csc2ccccc12)NC(=O)C1(N)COC1 [Compound 74] (H-[Ac4c(3-oxa)][dBta][dW]F-NH2)")
"criterion met"
>>> answer_label("C[C@@H](N)C(=O)N[C@H](Cc1csc2ccccc12)C(=O)N[C@H](Cc1c[nH]c2ccccc12)C(=O)N[C@@H](Cc1ccccc1)C(=O)N[C@H](CCCCN)C(N)=O [Compound 42] (H-[dA][dBta][dW]F[dK]-NH2)")
"criterion not met"
>>> answer_label("NC(=O)C1(NC(=O)[C@H](Cc2ccccc2)NC(=O)[C@@H](Cc2c[nH]c3ccccc23)NC(=O)[C@@H](Cc2csc3ccccc23)NC(=O)C23CNC[C@@H]2C3)CCNCC1 (stereo partly drawn) [Compound 30] (X2-[dBta][dW]F[Api]-NH2)")
"criterion met"
>>> answer_label("NC(=O)C1(NC(=O)[C@H](Cc2ccccc2)NC(=O)[C@@H](Cc2c[nH]c3ccccc23)NC(=O)[C@@H](Cc2csc3ccccc23)NC(=O)[C@H]2CCN2)CCNCC1 [Compound 25] (H-[dAze][dBta][dW]F[Api]-NH2)")
"criterion met"
>>> answer_label("CC[C@H](N)C(=O)N[C@H](Cc1csc2ccccc12)C(=O)N[C@H](Cc1c[nH]c2ccccc12)C(=O)N[C@@H](Cc1ccccc1)C(=O)NC1(C(N)=O)CCNCC1 [Compound 3] (H-[Abu][dBta][dW]F[Api]-NH2)")
"criterion met"

q: is_below(IC50, 20 nM) for NCCCC[C@@H](NC(=O)[C@H](Cc1ccccc1)NC(=O)[C@@H](Cc1c[nH]c2ccccc12)NC(=O)[C@@H](Cc1csc2ccccc12)NC(=O)[C@@]12CNC[C@@H]1C2)C(N)=O [Compound 60] (X7-[dBta][dW]F[dK]-NH2) ?
a: criterion not met

q: Same thing, different compound: NC(=O)C1(NC(=O)[C@H](Cc2ccccc2)NC(=O)[C@@H](Cc2c[nH]c3ccccc23)NC(=O)[C@@H](Cc2csc3ccccc23)NC(=O)CC23CC4CC(CC(N)(C4)C2)C3)CCNCC1 [Compound 28] (X5-[dBta][dW]F[Api]-NH2)
a: criterion not met

q: Can you check NCCCC[C@@H](N)C(=O)N[C@H](Cc1csc2ccccc12)C(=O)N[C@H](Cc1c[nH]c2ccccc12)C(=O)N[C@@H](Cc1ccccc1)C(=O)N[C@H](CCCCN)C(N)=O [Compound 34] (H-[dK][dBta][dW]F[dK]-NH2) next?
a: criterion not met

q: Note, next up: N=C(N)NCCC[C@@H](NC(=O)[C@H](Cc1ccccc1)NC(=O)[C@@H](Cc1c[nH]c2ccccc12)NC(=O)[C@@H](Cc1csc2ccccc12)NC(=O)[C@H]1CNCCO1)C(N)=O [Compound 67] (X4-[dBta][dW]F[dR]-NH2)
a: criterion not met
